Experiment: NCI Yeast Anticancer Drug Screen. Data for the bub3 strain (AID 167)
Details: S. cerevisiae bub3 mutant strain, at 5.0 µM (retest, dose inferred, filed as 0.5)
The panel holds about 79,000 compounds, 15% with a hit somewhere; the sample as a whole holds those more often. The source made the active and inactive calls. Cut-off read from the data, not from the text of the source: active = growth inhibition above about 70%; inactive = the rest.
Form entry, call: pick from active, inactive

Example entries begin here.
{"compound": "NC1CCCCC1N.Nc1c(N=Nc2ccc(-c3ccc(N=Nc4cc(S(=O)(=O)[O-])c5ccccc5c4N)cc3)cc2)cc(S(=O)(=O)[O-])c2ccccc12.[OH3+].[OH3+].[Pt+4]", "assigned.class": "active"}
{"compound": "CCc1c(Cl)c(C)cc(O)c1Cl", "assigned.class": "inactive"}
{"compound": "CCOc1ccccc1N=Cc1c2ccccc2cc2ccccc12", "assigned.class": "inactive"}
{"compound": "CN(C)N=Nc1ccccc1C(=O)NC#N", "assigned.class": "inactive"}

Called result for CCCCC/C(=C(\C#N)C(=O)OCC)c1ccccc1
inactive

Called result for CNC(=O)OCc1c(COC(=O)NC)c(-c2ccc(Cl)cc2)n2c1CCC2
inactive

Called result for O/N=C\c1c(O)ccc2ccccc12
inactive

Called result for Cc1c(-c2ccccn2)ccc2ccccc12
inactive

Called result for N#CC(=Nc1ccccc1F)Nc1ccccc1F
inactive

Called result for CCCCCCCCCCCCCCCCOP(=O)(O)OCC(N)C(=O)O (stereo unspecified)
inactive

Called result for COc1ccc(/C=C/C(=O)c2ccccc2)cc1OC
inactive
